Target chain: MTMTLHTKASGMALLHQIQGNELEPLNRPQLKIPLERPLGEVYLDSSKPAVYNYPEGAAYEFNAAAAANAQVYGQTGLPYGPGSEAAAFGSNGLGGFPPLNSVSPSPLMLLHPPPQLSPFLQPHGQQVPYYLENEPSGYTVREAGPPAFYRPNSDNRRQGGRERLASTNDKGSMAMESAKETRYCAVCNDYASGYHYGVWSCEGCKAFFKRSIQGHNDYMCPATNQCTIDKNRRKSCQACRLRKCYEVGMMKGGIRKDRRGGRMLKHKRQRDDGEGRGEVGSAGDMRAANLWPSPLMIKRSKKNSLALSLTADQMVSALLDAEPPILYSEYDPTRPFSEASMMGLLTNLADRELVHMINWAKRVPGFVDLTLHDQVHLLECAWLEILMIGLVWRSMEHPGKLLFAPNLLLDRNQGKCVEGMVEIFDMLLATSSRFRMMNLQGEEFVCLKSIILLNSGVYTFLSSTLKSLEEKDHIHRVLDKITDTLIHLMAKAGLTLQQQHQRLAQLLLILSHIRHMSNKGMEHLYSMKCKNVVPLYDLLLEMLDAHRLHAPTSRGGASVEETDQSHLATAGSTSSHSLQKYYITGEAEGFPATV
pIC50: −log10 of the molar value.
measurement.kind: pIC50

[Q] Return reported pIC50; argument: CC1=NC(C)=C(C(=O)OC(C)(C)C)[C@H](c2ccc(F)cc2Cl)C1C#N (stereo partly specified)
[A] < 5.00
